Biological target: recombinant human PAI-1 (Homo sapiens, UniProt P05121)
Sequence (P05121 24-402): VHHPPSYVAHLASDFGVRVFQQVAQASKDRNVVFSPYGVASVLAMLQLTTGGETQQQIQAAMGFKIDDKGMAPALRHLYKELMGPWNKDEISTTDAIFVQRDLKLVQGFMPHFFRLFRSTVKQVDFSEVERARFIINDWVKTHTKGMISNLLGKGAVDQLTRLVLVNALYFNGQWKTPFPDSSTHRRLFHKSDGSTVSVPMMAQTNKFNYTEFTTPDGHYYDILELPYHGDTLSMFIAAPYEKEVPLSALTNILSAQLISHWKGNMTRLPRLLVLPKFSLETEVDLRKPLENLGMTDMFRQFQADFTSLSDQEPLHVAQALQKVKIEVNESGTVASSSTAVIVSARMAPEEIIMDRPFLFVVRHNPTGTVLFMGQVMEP
Assay: Test Example 2: Human PAI-1 Inhibitory Activity (pH 7.4 HEPES buffer, 10 minutes incubation with two-chain tPA)
Type: biochemical
Design: purchased Molecular Innovations, Inc
Settings: read-out: Inhibition Rate of PAI-1 Activity (%)
outcomeMeasure: inhibition at 10 µM

Solved entries:
| structureSmilesString | result |
| --- | --- |
| CC(C)(C)c1ccc(COc2ccc(NS(=O)(=O)c3ccc(OC(F)(F)F)cc3)cc2CCC(=O)O)cc1 | > 99% |
| CCCCOc1ccc(-c2ccc(OC(F)(F)F)cc2)cc1CCC(=O)O | > 99% |
| CCCCOc1ccc(-c2ccc(OC(F)(F)F)cc2)cc1C=CC(=O)O | > 99% |

Could you now look at the following molecule, please?
**Query** What does the record list as inhibition at 10 µM for O=C(O)c1cc(-c2ccc(OC(F)(F)F)cc2)ccc1OCc1ccccc1 ?
**Result** 17%

====

Molecular target: recombinant human PAI-1 (Homo sapiens, UniProt P05121)
Assay: biochemical
Conditions: read-out: Inhibition Rate of PAI-1 Activity (%)
outcomeMeasure: inhibition at 25 µM (%)
Give the value in % but do not write % after it.

Solved entries:
| compound | inhibition at 25 µM / % |
| --- | --- |
| CC(C)(C)c1ccc(COc2ccc(OCc3ccc(OC(F)(F)F)cc3)cc2/C=C/C(=O)O)cc1 [Compound 413] | 84 |
| O=C(O)C(=O)N(CCCc1ccccc1)c1ccc(-c2ccc(OC(F)(F)F)cc2)cc1 [Compound 224] | 86 |

**Query** What does the record list as inhibition at 25 µM for CC(C)(C)c1ccc(CN(C(=O)C(=O)O)c2ccc(-c3ccc(OC(F)(F)F)cc3)c(C(F)(F)F)c2)cc1 [Compound 166] ?
**Result** 84

**Query** What does the record list as inhibition at 25 µM for Cc1cc(-c2ccc(OC(F)(F)F)cc2)ccc1N(Cc1ccc(C(C)(C)C)cc1)C(=O)C(=O)O [Compound 146] ?
**Result** 90

**Query** What does the record list as inhibition at 25 µM for Cc1ccc(-c2ccccc2)cc1N(Cc1ccc(C(C)(C)C)cc1)C(=O)C(=O)O [Compound 137] ?
**Result** 61

**Query** What does the record list as inhibition at 25 µM for CC(C)(C)c1ccc(CN(C(=O)C(=O)O)c2ccc(-c3ccccc3OC(F)(F)F)cc2)cc1 [Compound 201] ?
**Result** 82

**Query** What does the record list as inhibition at 25 µM for Cc1ccc(-c2cccc([N+](=O)[O-])c2)cc1N(Cc1ccc(C(C)(C)C)cc1)C(=O)C(=O)O [Compound 138] ?
**Result** 61

**Query** What does the record list as inhibition at 25 µM for CC(C)(C)c1ccc(-c2ccc(Oc3ccc(-c4ccc(OC(F)(F)F)cc4)cc3/C=C/C(=O)O)c(CCC(=O)O)c2)cc1 [Compound 540] ?
**Result** 91

**Query** What does the record list as inhibition at 25 µM for CC(C)(C)c1ccc(-c2ccc(N(Cc3ccccc3OC(F)(F)F)C(=O)C(=O)O)cc2)cc1 [Compound 202] ?
**Result** 98

**Query** What does the record list as inhibition at 25 µM for CC(C)(C)c1ccc(CN(C(=O)C(=O)O)c2ccc(SCc3ccc(OC(F)(F)F)cc3)cc2)cc1 [Compound 630] ?
**Result** 88

**Query** What does the record list as inhibition at 25 µM for CC(C)(C)c1ccc(Oc2cccc(-c3ccc(OC(F)(F)F)cc3)c2/C=C/C(=O)O)cc1 [Compound 93] ?
**Result** 94

**Query** What does the record list as inhibition at 25 µM for CC(C)(Oc1ccc(-c2ccc(OC(F)(F)F)cc2)cc1Oc1ccc(C(C)(C)C)cc1)C(=O)O [Compound 110] ?
**Result** 83

**Query** What does the record list as inhibition at 25 µM for CC(C)(C)c1ccc(COc2cc(-c3ccc(OC(F)(F)F)cc3)ccc2CCC(=O)O)cc1 [Compound 76] ?
**Result** 98

**Query** What does the record list as inhibition at 25 µM for CCCOc1ccc(N(CCCc2ccccc2)C(=O)C(=O)O)c(-c2ccc(OC(F)(F)F)cc2)c1 [Compound 232] ?
**Result** 96

**Query** What does the record list as inhibition at 25 µM for CC(C)(C)c1ccc(CN(C(=O)C(=O)O)c2c(Cl)cc(-c3ccc(OC(F)(F)F)cc3)cc2Cl)cc1 [Compound 173] ?
**Result** 90

**Query** What does the record list as inhibition at 25 µM for CC(C)(Oc1cc(-c2ccc(OC(F)(F)F)cc2)ccc1OCCCCc1ccccc1)C(=O)O [Compound 116] ?
**Result** 91

**Query** What does the record list as inhibition at 25 µM for CC(C)Oc1ccc(N(Cc2ccc(C(C)(C)C)cc2)C(=O)C(=O)O)c(-c2ccc(OC(F)(F)F)cc2)c1 [Compound 209] ?
**Result** 94

====

Target: recombinant human PAI-1 (Homo sapiens, UniProt P05121)
Assay: Test Example 2: Human PAI-1 Inhibitory Activity (pH 7.4 HEPES buffer, 10 minutes incubation with two-chain tPA)
Assay type: biochemical
Set-up: purchased Molecular Innovations, Inc
Details: read-out: Inhibition Rate of PAI-1 Activity (%)
outcomeMeasure: inhibition at 0.3 µM (%)
Give the value in % but do not write % after it.

Solved entries:
| compound | quantitativeResult |
| --- | --- |
| CC(C)(C)c1ccc(Oc2cccc(-c3ccc(OC(F)(F)F)cc3)c2OCC(=O)O)cc1 [Compound 113] | 6 |
| CCCCCOc1ccc(Oc2ccc(OC(F)(F)F)cc2)cc1N(CCCCc1ccccc1)C(=O)C(=O)O [Compound 363] | 4 |
| CCCCC(Oc1ccc(-c2cccc(C)c2)cc1Oc1ccc(C(C)(C)C)cc1)C(=O)O (centres unmarked) [Compound 321] | 15 |
| CCCCC(CC(=O)O)c1cc(-c2ccc(OC(F)(F)F)cc2)ccc1Oc1ccc(C(C)(C)C)cc1 (centres unmarked) [Compound 422] | 24 |

**Query** Enter reported inhibition at 0.3 µM observed with recombinant human PAI-1 (Homo sapiens, UniProt P05121) for O=C(O)C(=O)N(CCCCc1ccccc1)c1cc(-c2ccc(OC(F)(F)F)cc2)ccc1OCCCC1CCCC1 [Compound 355]
**Result** 3

====

inhibition at 5 µM by entry:
Molecular target: recombinant human PAI-1 (Homo sapiens)
Assay: biochemical
Conditions: read-out: Inhibition Rate of PAI-1 Activity (%)
Give the value in % but do not write % after it.

Solved entries:
| structureSmilesString | tgt | inhibition at 5 µM [%] |
| --- | --- | --- |
| CC(C)(C)c1ccc(CN(C(=O)C(=O)O)c2ccc(-c3ccccc3OC(F)(F)F)cc2)cc1 | recombinant human PAI-1 (Homo sapiens) | 64 |
| Cc1cc(-c2ccc(OC(F)(F)F)cc2)cc(N(Cc2ccc(C(C)(C)C)cc2)C(=O)C(=O)O)c1 | recombinant human PAI-1 (Homo sapiens) | 56 |
| CC(C)(C)c1ccc(-c2ccc(N(Cc3ccc(C(F)(F)F)cc3)C(=O)C(=O)O)cc2)cc1 | recombinant human PAI-1 (Homo sapiens) | 50 |
| CCCCCOc1ccc(N(CCCCc2ccccc2)C(=O)C(=O)O)cc1-c1ccc(OC(F)(F)F)cc1 | recombinant human PAI-1 (Homo sapiens) | 71 |
| CC(C)(C)c1ccc(CN(C(=O)C(=O)O)c2cccc(OCc3ccc(OC(F)(F)F)cc3)c2)cc1 | recombinant human PAI-1 (Homo sapiens) | 48 |

**Query** Enter reported inhibition at 5 µM observed with recombinant human PAI-1 (Homo sapiens) for CC(C)(OCc1ccc(-c2ccc(OC(F)(F)F)cc2)cc1Oc1ccc(C(C)(C)C)cc1)C(=O)O
**Result** 55

====

inhibition at 1 µM by entry:
Target: recombinant human PAI-1 (Homo sapiens, UniProt P05121)
Test: Test Example 2: Human PAI-1 Inhibitory Activity (pH 7.4 HEPES buffer, 10 minutes incubation with two-chain tPA)
Format: biochemical
Design: purchased Molecular Innovations, Inc
Details: read-out: Inhibition Rate of PAI-1 Activity (%)
The number alone won't do; follow it with the unit.

| molecule | tgt | inhibition at 1 µM |
| --- | --- | --- |
| CC(C)(C)c1ccc(COc2cccc(Oc3ccc(OC(F)(F)F)cc3)c2CCC(=O)O)cc1 [Compound 86] | recombinant human PAI-1 (Homo sapiens, UniProt P05121) | 22% |
| CCC(CC)Oc1ccc(N(Cc2ccc(C(C)(C)C)cc2)C(=O)C(=O)O)cc1-c1ccc(OC(F)(F)F)cc1 [Compound 197] | recombinant human PAI-1 (Homo sapiens, UniProt P05121) | 38% |
| CCCCCOc1cc(-c2ccc(OC(F)(F)F)cc2)ccc1CN(CC(=O)O)c1ccc(C(C)(C)C)cc1 [Compound 649] | recombinant human PAI-1 (Homo sapiens, UniProt P05121) | 96% |
| CCCCCOc1ccc(-c2ccc(OC(F)(F)F)cc2)cc1N(CCCCOc1ccccc1)C(=O)C(=O)O [Compound 374] | recombinant human PAI-1 (Homo sapiens, UniProt P05121) | 57% |
| CCCCCOc1ccc(-c2ccc(F)cc2)cc1N(CCCCc1ccccc1)C(=O)C(=O)O [Compound 359] | recombinant human PAI-1 (Homo sapiens, UniProt P05121) | 26% |
| CC(C)(C)c1ccc(COc2c(CCC(=O)O)cccc2-c2ccc(OC(F)(F)F)cc2)cc1 [Compound 88] | recombinant human PAI-1 (Homo sapiens, UniProt P05121) | 25% |
| Cc1ccc(-c2ccc(OCC(=O)O)c(Oc3ccc(C(C)(C)C)cc3)c2)cc1 [Compound 444] | recombinant human PAI-1 (Homo sapiens, UniProt P05121) | 11% |
| CC(C)(C)c1cccc(Oc2ccc(-c3ccc(OC(F)(F)F)cc3)cc2/C=C/C(=O)O)c1 [Compound 437] | recombinant human PAI-1 (Homo sapiens, UniProt P05121) | 67% |

**Query** Enter reported inhibition at 1 µM observed with recombinant human PAI-1 (Homo sapiens, UniProt P05121) for Cc1cccc(-c2ccc(OCC(=O)O)c(Oc3ccc(C(C)(C)C)cc3)c2)c1 [Compound 319]
**Result** 17%
